Origin of measurements: patent US20230272117A1

tgt: cynomolgus monkey ABCC1 (UniProt Q864R9 1-1531)
Sequence (Q864R9 whole entry): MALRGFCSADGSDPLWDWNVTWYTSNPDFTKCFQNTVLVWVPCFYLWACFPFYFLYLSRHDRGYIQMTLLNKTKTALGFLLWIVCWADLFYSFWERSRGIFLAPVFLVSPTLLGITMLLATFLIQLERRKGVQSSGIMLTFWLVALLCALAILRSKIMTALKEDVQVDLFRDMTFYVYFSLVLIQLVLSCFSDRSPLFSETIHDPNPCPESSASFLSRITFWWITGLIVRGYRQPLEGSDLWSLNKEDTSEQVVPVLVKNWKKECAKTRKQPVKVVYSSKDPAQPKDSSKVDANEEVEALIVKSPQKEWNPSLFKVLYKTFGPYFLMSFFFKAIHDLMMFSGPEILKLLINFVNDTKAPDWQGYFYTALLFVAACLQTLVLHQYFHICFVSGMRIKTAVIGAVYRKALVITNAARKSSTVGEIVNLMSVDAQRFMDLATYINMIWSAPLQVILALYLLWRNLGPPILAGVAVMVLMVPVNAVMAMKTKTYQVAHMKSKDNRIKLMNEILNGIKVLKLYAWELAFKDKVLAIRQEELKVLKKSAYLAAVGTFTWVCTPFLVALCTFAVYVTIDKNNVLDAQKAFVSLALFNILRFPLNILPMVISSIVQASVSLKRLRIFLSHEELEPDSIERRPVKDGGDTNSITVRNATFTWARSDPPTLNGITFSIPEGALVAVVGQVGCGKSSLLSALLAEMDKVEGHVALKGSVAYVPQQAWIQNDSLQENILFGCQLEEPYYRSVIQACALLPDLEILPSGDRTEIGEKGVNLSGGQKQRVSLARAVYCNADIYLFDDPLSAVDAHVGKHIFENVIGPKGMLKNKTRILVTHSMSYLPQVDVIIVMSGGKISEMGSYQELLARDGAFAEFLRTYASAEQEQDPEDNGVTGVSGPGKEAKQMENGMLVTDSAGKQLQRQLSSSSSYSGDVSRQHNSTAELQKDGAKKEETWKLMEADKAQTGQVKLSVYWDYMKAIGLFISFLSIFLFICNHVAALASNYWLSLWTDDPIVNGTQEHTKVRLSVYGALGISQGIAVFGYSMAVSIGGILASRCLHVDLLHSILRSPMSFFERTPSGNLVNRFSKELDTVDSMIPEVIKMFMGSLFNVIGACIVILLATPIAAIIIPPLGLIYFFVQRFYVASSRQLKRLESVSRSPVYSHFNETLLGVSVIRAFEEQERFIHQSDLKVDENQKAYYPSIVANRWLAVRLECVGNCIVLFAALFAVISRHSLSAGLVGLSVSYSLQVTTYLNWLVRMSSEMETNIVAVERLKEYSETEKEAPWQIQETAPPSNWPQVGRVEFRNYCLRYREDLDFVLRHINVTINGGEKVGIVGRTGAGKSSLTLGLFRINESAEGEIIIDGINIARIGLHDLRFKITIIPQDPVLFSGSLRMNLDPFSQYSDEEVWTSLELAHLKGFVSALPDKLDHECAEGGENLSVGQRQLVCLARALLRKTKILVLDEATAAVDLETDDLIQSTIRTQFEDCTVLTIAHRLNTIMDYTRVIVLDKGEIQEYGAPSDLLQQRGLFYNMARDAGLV
experimentDescription: FACS titration on C6-cC1 cells
endpointLabel: Kd (nM)
Form entry: value (nM) — number only.

Which measured Kd value corresponds to C1.773 (antibody, V domains shown) VH: EIQLAQSGPELVKPGASVKMSCKASGYSFIGYFMNWVKQSHGKSLEWIGRINPYNGDTFYNQKFKGKATLTVDKSSSTAHMELRSLTSEDSALYYCTRSGWGYDVYSFDYWGQGTLVTVSS VL: DIQMTQTPSSLSASLGDRVTISCRASQDISNYLNWYQQKPDGTVKLLIYYTSRLHSGVPSRFSGSGSGTDYSLTISNLEQEDIATYFCQQGNTLPWTFGGGTKLEIK ?
5.9

# get_value(readout='Kd', item= C1.851 (antibody, V domains shown) VH: EVQLKESGPGLVQPSQTLSLTCTVSGFSLTNNGVSWIRQPPGKGLEWIAAISSGGNIYYNSAFKSRLSISRNTSKRQVLLKMNSLQTEDTAMYFCARHRGYYGYNWGYFDYWGQGASVTVSS VL: NIQLTQSPSLLSASVGDRVTLSCKGSQNINNYLAWYQQKLGEAPKLLIYKTNSLQTGIPSRFSGSGSGTDYTLTISSLHSEDLATYYCCQYNNGYTFGAGTKLELKR )
28

Fill in the blank: the reported Kd of C1.844 (antibody, V domains shown) VH: EVQLKESGPGLVQPSQTLSLTCTVSGFSLTSNGVIWVRQPPGKGLEWIAAISSGGNIYYNSGLKSRLGISRDTSKSQVFLKMNSLQTEDTAIYFCTRARGTTTAYVMDAWGQGASVTVSS VL: DIVMTQSPSSLAVSAGETVNINCKSSQSLLYSVNQKNYLAWYQQKPGQSPKLLIYWASTRQSGVPDRFIGSGSGTDFTLTISSVQAEDLAIYYCQQYYDTLMKMFGAGTKLELK is ____.
34.1
